Tested on: S. maltophilia CAN-ICU 62584
Assay type: cell-based
Peptide text beside a SMILES is read from it. * marks the point of attachment. Acetyl(1-adamantyl) = O=C(CC12CC3CC(CC(C3)C1)C2)*; Palmitoyl = CCCCCCCCCCCCCCCC(=O)*; Lauroyl = CCCCCCCCCCCC(=O)*
Could you please report measured MIC for the items listed next?

## Input Please look up its MIC: CCCCCCCCCCCCCCCC(=O)N1CCC[C@H]1C(=O)N[C@@H](CCCNC(=N)N)C(=O)N1CCC[C@H]1C(=O)N[C@@H](CC(C)C)C(=O)N1CCC[C@H]1C(=O)N[C@@H](CCCNC(=N)N)C(=O)N1CCC[C@H]1C(N)=O [Compound C16-PLP, CH3(CH2)14CO-PRPLPRP-NH2] (Palmitoyl-PRPLPRP-NH2)
## Output >128 µg/mL

## Input Now consider CCCCCCCCCCCC(=O)N1CCC[C@H]1C(=O)N[C@@H](CCCNC(=N)N)C(=O)N1CCC[C@H]1C(=O)N[C@@H](Cc1c[nH]c2ccccc12)C(=O)N1CCC[C@H]1C(=O)N[C@@H](CCCNC(=N)N)C(=O)N1CCC[C@H]1C(N)=O [Compound C12-PWP, CH3(CH2)10CO-PRPWPRP-NH2] (Lauroyl-PRPWPRP-NH2) .
## Output >128 µg/mL

## Input Now consider N=C(N)NCCC[C@H](NC(=O)[C@@H]1CCCN1C(=O)[C@H](CCCNC(=N)N)NC(=O)[C@@H]1CCCN1C(=O)[C@H](CCCNC(=N)N)NC(=O)[C@@H]1CCCN1C(=O)CC12CC3CC(CC(C3)C1)C2)C(=O)N1CCC[C@H]1C(N)=O [Ad-PRP, Adamantyl-CH2CO-PRPRPRP-NH2] ({Acetyl(1-adamantyl)}-PRPRPRP-NH2) .
## Output >128 µg/mL

---

Test system: S. maltophilia CAN-ICU 62584
Format: cell-based
Peptide text beside a SMILES is read from it. * marks the point of attachment. Acetyl(1-adamantyl) = O=C(CC12CC3CC(CC(C3)C1)C2)*; Palmitoyl = CCCCCCCCCCCCCCCC(=O)*; Octanoyl = CCCCCCCC(=O)*
property-measured: MIC

## Input Please look up its MIC: CCCCCCCC(=O)N1CCC[C@H]1C(=O)N[C@@H](CCCNC(=N)N)C(=O)N1CCC[C@H]1C(=O)N[C@@H](CC(C)C)C(=O)N1CCC[C@H]1C(=O)N[C@@H](CCCNC(=N)N)C(=O)N1CCC[C@H]1C(N)=O [Compound C8-PLP, CH3(CH2)6CO-PRPLPRP-NH2] (Octanoyl-PRPLPRP-NH2)
## Output >128 µg/mL

## Input Now consider CCCCCCCCCCCCCCCC(=O)N1CCC[C@H]1C(=O)N[C@@H](CCCNC(=N)N)C(=O)N1CCC[C@H]1C(=O)N[C@@H](Cc1c[nH]c2ccccc12)C(=O)N1CCC[C@H]1C(=O)N[C@@H](CCCNC(=N)N)C(=O)N1CCC[C@H]1C(N)=O [Compound C16-PWP, CH3(CH2)14CO-PRPWPRP-NH2] (Palmitoyl-PRPWPRP-NH2) .
## Output 64 µg/mL

## Input Now consider CC(C)C[C@H](NC(=O)[C@@H]1CCCN1C(=O)[C@H](CCCNC(=N)N)NC(=O)[C@@H]1CCCN1C(=O)CC12CC3CC(CC(C3)C1)C2)C(=O)N1CCC[C@H]1C(=O)N[C@@H](CCCNC(=N)N)C(=O)N1CCC[C@H]1C(N)=O [Ad-PLP, Adamantyl-CH2CO-PRPLPRP-NH2] ({Acetyl(1-adamantyl)}-PRPLPRP-NH2) .
## Output >128 µg/mL
